system: UO-31 renal; assay: NCI tumour cell line growth inhibition, 48 h
A collection of molecules and their measured TGI

[
  {
    "line-notation": "Cc1[nH]c2ccccc2c1C(=O)/C=C/c1ccccc1O",
    "TGI": "> 100 µM"
  },
  {
    "line-notation": "CN(C)CCC(=O)c1ccccc1",
    "TGI": "> 68.8 µM"
  },
  {
    "line-notation": "O=c1[nH]nc(Cc2ccccc2)n1/N=C/c1ccccc1O",
    "TGI": "> 100 µM"
  }
]

* * *

test system: OVCAR-5 ovarian; test: NCI tumour cell line growth inhibition, 48 h
Where a SMILES comes first, the peptide text is derived from it. The star is where a group is joined. Cbz = O=C(OCc1ccccc1)*

[
  {
    "molecule": "Oc1[nH]c2ccccc2c1N=NC(=S)Nc1cccc(Cl)c1",
    "TGI": "> 100 µM"
  },
  {
    "molecule": "COc1cccc2c1C(=O)c1c(O)c3c(c(O)c1C2=O)C[C@](O)(C(=O)CO)C[C@H]3O[C@@H]1C[C@@H](NC(=O)CCCCCN(C)C2(c3ccc(F)cc3)CC3CCC2C3)[C@H](O)[C@@H](C)O1 (some centres undefined)",
    "TGI": "2.19 µM"
  },
  {
    "molecule": "Cc1nn(-c2ccc(Cl)cc2)c2nc3c(nc12)C(=O)c1ccccc1-3",
    "TGI": "> 100 µM"
  },
  {
    "molecule": "O=C(O)CCC(NC(=O)OCc1ccccc1)C(=O)NC(Cc1cnc[nH]1)C(=O)O (stereo not drawn) (Cbz-Glu-His-OH; configuration not given here)",
    "TGI": "> 100 µM"
  }
]

* * *

test system: NCI-H522 lung; assay: NCI tumour cell line growth inhibition, 48 h
A collection of compounds and their measured TGI
readout-kind: TGI

[
  {
    "compound": "CN1CCN(C(=S)N2CCN(C)CC2)CC1",
    "result": "> 45.6 µM"
  },
  {
    "compound": "CCSc1ncnc2c1ncn2C1OC(CO)C(O)C1O (stereo not drawn)",
    "result": "> 100 µM"
  },
  {
    "compound": "CC(OC(C)(C)C)[C@H](NC(=O)OCC(Cl)(Cl)Cl)C(=O)O (stereo partly drawn)",
    "result": "> 100 µM"
  }
]

* * *

A collection of compounds and their measured TGI
test system: RPMI-8226 leukemia; experiment: NCI tumour cell line growth inhibition, 48 h

[
  {
    "compound": "CNCC#Cc1c(F)ccc2c1/C(=C/c1[nH]ccc1OC)C(=O)N2",
    "modifier-sign": "=",
    "TGI, µM": 1.47
  },
  {
    "compound": "Nc1ncnc2c1ncn2[C@@H]1C[C@@H]1CO",
    "modifier-sign": ">",
    "TGI, µM": 100
  },
  {
    "compound": "COC(=O)C(Cc1c[nH]c2ccccc12)NP(=O)(O)OCC1OC(n2cc(I)c(=O)[nH]c2=O)CC1O (stereo not given)",
    "modifier-sign": ">",
    "TGI, µM": 100
  },
  {
    "compound": "CCCCNC(=S)Nc1nc(C(=O)NNC(=S)Nc2ccccc2)cs1",
    "modifier-sign": ">",
    "TGI, µM": 100
  },
  {
    "compound": "Oc1cccnc1[Se]",
    "modifier-sign": ">",
    "TGI, µM": 100
  },
  {
    "compound": "COc1ccc(/C=C2\\N=C(SC)N(CN3CCOCC3)C2=O)cc1",
    "modifier-sign": ">",
    "TGI, µM": 100
  },
  {
    "compound": "O=C(CSc1nc2ccccc2nc1-c1ccccc1)Nc1ccc(F)cc1",
    "modifier-sign": ">",
    "TGI, µM": 100
  },
  {
    "compound": "CCC(C)OC(=O)/C(Br)=C1/OC(=O)c2ccccc2-c2ccccc21 (stereo not given)",
    "modifier-sign": "=",
    "TGI, µM": 87.9
  },
  {
    "compound": "N#Cc1c2ccccc2cn1-c1ccc(F)cc1",
    "modifier-sign": "=",
    "TGI, µM": 61.2
  },
  {
    "compound": "Nc1nc(/C=C\\c2ccc([N+](=O)[O-])s2)nc(N2CCCC2)n1",
    "modifier-sign": "=",
    "TGI, µM": 4.39
  }
]
